Sourced from ChEMBL document CHEMBL3232719

# pIC50 values compiled below
biological target: Cathepsin G (Homo sapiens, UniProt P08311); assay: Inhibition of recombinant cathepsin G (unknown origin) using Suc-Ala-Ala-Pro-Phe-AMC as substrate by spectrofluorometer analysis
Sequence (P08311 whole entry): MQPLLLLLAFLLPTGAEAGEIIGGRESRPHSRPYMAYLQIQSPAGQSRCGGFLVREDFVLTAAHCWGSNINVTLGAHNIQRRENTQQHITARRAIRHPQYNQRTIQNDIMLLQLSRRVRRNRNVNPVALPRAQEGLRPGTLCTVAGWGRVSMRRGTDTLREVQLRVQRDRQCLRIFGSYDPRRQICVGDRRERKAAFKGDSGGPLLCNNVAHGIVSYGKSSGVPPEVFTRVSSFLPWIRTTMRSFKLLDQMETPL
pIC50: −log10 of the molar value.

- molecule: "CC(C)C[C@H](NC(=O)[C@H](Cc1ccccc1)NC(=O)c1cnccn1)B(O)O"
  experimental.target: "Cathepsin G (Homo sapiens, UniProt P08311)"
  pIC50: 5.51
- molecule: "CC(C)C[C@H](NC(=O)[C@H](CCc1ccccc1)NC(=O)CN1CCOCC1)C(=O)N[C@@H](Cc1ccccc1)C(=O)N[C@@H](CC(C)C)C(=O)[C@@]1(C)CO1"
  experimental.target: "Cathepsin G (Homo sapiens, UniProt P08311)"
  pIC50: "< 4.52"
- molecule: "CC(=O)N[C@@H](CC(=O)NCCCCOCc1ccccc1)C(=O)N[C@@H](CC(C)C)B1O[C@@H]2C[C@@H]3C[C@@H](C3(C)C)[C@]2(C)O1"
  experimental.target: "Cathepsin G (Homo sapiens, UniProt P08311)"
  pIC50: "< 4.52"
- molecule: "CC(=O)N[C@@H](CC(=O)NCCC(COCc1ccccc1)COCc1ccccc1)C(=O)N[C@@H](CC(C)C)B1O[C@@H]2C[C@@H]3C[C@@H](C3(C)C)[C@]2(C)O1"
  experimental.target: "Cathepsin G (Homo sapiens, UniProt P08311)"
  pIC50: "< 4.52"

----------
biological target: 26S proteasome; assay: Inhibition of caspase-like activity of human 20S proteasome using Ac-nLPnLD-AMC as substrate; assay type: protein-complex assay
pIC50: −log10 of the molar value.

- molecule: "CC(=O)N[C@@H](CC(=O)NCCCC(COCc1ccccc1)COCc1ccccc1)C(=O)N[C@@H](CC(C)C)B1O[C@@H]2C[C@@H]3C[C@@H](C3(C)C)[C@]2(C)O1"
  pIC50: 6.92
- molecule: "CC(=O)N[C@@H](CC(=O)NCCC(COCc1ccccc1)COCc1ccccc1)C(=O)N[C@@H](CC(C)C)B1O[C@@H]2C[C@@H]3C[C@@H](C3(C)C)[C@]2(C)O1"
  pIC50: 6.82
- molecule: "CC(C)C[C@H](NC(=O)[C@H](CC(=O)NCCC(COCc1ccccc1)COCc1ccccc1)NC(=O)c1cccc(-c2ccccc2)n1)B1O[C@@H]2C[C@@H]3C[C@@H](C3(C)C)[C@]2(C)O1"
  pIC50: 6.00
- molecule: "CC(C)C[C@H](NC(=O)[C@H](CC(=O)NCCC(COCc1ccccc1)COCc1ccccc1)NC(=O)c1cc(Cl)ccc1Cl)B1O[C@@H]2C[C@@H]3C[C@@H](C3(C)C)[C@]2(C)O1"
  pIC50: 6.60
- molecule: "CC(C)C[C@H](NC(=O)[C@H](CC(=O)NCCC(COCc1ccccc1)COCc1ccccc1)NC(=O)c1ccccc1)B1O[C@@H]2C[C@@H]3C[C@@H](C3(C)C)[C@]2(C)O1"
  pIC50: 6.89
- molecule: "CC(=O)N[C@@H](CC(=O)NCCCCOCc1ccccc1)C(=O)N[C@@H](CC(C)C)B1O[C@@H]2C[C@@H]3C[C@@H](C3(C)C)[C@]2(C)O1"
  pIC50: 6.77
- molecule: "CNC(=O)C[C@H](NC(C)=O)C(=O)N[C@@H](CC(C)C)B1O[C@@H]2C[C@@H]3C[C@@H](C3(C)C)[C@]2(C)O1"
  pIC50: 6.30
